experiment: Brain penetration in mice (LC-MS/MRM of plasma and brain); type: in vivo, C57BL/6J mice; settings: C57BL/6J, mouse, plasma, intravenous; 0.5 mg/kg tail vein injection, 1 hour after dosing, range of n=3
# concentration at 1 h annotations

1. Cc1cccc(C)c1NC(=O)Cn1nc(Cc2ccccc2)c2ccccc2c1=O [CNS-11g] : 10.4 to 58.8 nM

Prompt line: Give recorded concentration at 1 h. Cc1cc(C)c(NC(=O)Cn2nc3c4c(cccc4c2=O)-c2ccccc2-3)c(C)c1
Response line: 5 to 28.4 nM
